# assay system: MRGPRX2-MUT (MRGPRX2 N62S mutation) (Homo sapiens, UniProt Q96LB1, N62S)
# Construct: expressed in transfected cells
# Sequence (Q96LB1 whole entry N62S): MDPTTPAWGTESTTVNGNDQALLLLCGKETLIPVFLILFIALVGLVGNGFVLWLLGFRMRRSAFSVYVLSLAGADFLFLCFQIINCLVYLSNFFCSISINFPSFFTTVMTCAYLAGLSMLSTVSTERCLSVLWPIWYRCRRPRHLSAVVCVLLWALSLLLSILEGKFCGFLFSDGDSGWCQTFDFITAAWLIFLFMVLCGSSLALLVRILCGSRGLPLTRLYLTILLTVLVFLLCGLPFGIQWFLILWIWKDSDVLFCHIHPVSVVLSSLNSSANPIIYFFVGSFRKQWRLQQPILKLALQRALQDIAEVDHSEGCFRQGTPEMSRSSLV
# protocol: Primary HTS, Ca2+ mobilization (fluorescence ratio, B-score) in HEK293-Gα15 cells stably expressing the MRGPRX2 N62S mutation
# Assay type: cell-based
# condition info: 10 μM compound, MRGPRX2-MUT (N62S) cells, Supplementary Table 2
Counter-ions that a name gives are not always drawn.
Measured B-scores (MUT) of individual entries
readout kind: B-scores (MUT)

compound: COc1ccc(CCN(C)CCCC(C#N)(c2cc(OC)c(OC)c(OC)c2)C(C)C)cc1OC (stereo not drawn) [Gallopamil]
readout kind: B-scores (MUT)
measured value: 0.2

compound: CN(C)CCCN1c2ccccc2Sc2ccc(Cl)cc21 [Chlorpromazine Hydrochloride]
readout kind: B-scores (MUT)
measured value: 2.69

compound: CC(C)(C)NCC(O)c1cc(O)cc(O)c1.CC(C)(C)NCC(O)c1cc(O)cc(O)c1.O=S(=O)(O)O (stereo not drawn) [Terbutaline Hemisulfate]
readout kind: B-scores (MUT)
measured value: 1.91

compound: CC(Cc1ccc(O)cc1)NCC(O)c1cc(O)cc(O)c1 (stereo not drawn) [Fenoterol Hydrobromide]
readout kind: B-scores (MUT)
measured value: -0.03

compound: CN1[C@@H]2CC[C@H]1C[C@@H](OC(=O)C(CO)c1ccccc1)C2 (stereo partly drawn) [Atropine Sulfate Monohydrate]
readout kind: B-scores (MUT)
measured value: 0.9

compound: CN(C)CCC=C1c2ccccc2C=Cc2ccccc21 [Cyclobenzaprine Hydrochloride]
readout kind: B-scores (MUT)
measured value: 1.22

compound: CC(=O)[C@]1(O)Cc2c(O)c3c(c(O)c2[C@@H](O[C@H]2C[C@H](N)[C@H](O)[C@H](C)O2)C1)C(=O)c1ccccc1C3=O [Idarubicin hydrochloride]
readout kind: B-scores (MUT)
measured value: 39.57

compound: CN1[C@@H]2CC[C@H]1CC(OC(=O)[C@H](CO)c1ccccc1)C2.Cl (stereo partly drawn) [Hyoscyamine Hydrochloride]
readout kind: B-scores (MUT)
measured value: 0.69

compound: CN(C)CCCN1c2ccccc2Sc2ccccc21 [Promazine Hydrochloride]
readout kind: B-scores (MUT)
measured value: 8.13

Hey, just so you know, these numbers are from paper PMC9635925.
